Value source: paper PMC5540273

Reported %Inh values for a set of compounds
Tested on: LYN
Condition label: concentration: 1 μM, replicates: in singlicate; n = 1;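 note: KINOMEscan kinase panel screen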
Give just the numeric value; % need not be written.

compound="COc1cc2ncn(-c3cc(OCc4ccc(S(C)(=O)=O)cc4)c(C(N)=O)s3)c2cc1OC [GW869979]" observed_result=26

Inquiry: May I ask what %Inh has been recorded for Nc1nc(N)c2nc(-c3ccccc3)[nH]c2n1 [SKF-12778] ?
Reply text: 3

Inquiry: Which %Inh value belongs to Nc1nccc2scc(-c3ccc4c(c3)CCN4C(=O)Cc3ccccc3)c12 [GSK2576924] ?
Reply text: 0

Inquiry: I'd like to know its %Inh. The compound in question is Nc1nc(-c2ccccc2F)c(-c2ccnc3ccccc23)s1 [GW560459]
Reply text: 0

Inquiry: Bench note: what %Inh did Nc1ncnc2c1ncn2-c1cccc2ccccc12 [SKF-97184] show?
Reply text: 15

Inquiry: Recorded %Inh for COc1cc(Nc2nccc(N3CCC(NC(=O)C(C)c4ccc(Cl)cc4)C3)n2)cc(OC)c1OC (stereo not shown) [GSK1379757] , please?
Reply text: 0

Inquiry: GET /values?readout=%Inh&item= `CCC(=O)c1c(-c2ccccc2)c2cc(Cl)ccc2c(=O)n1Cc1cc(S(C)(=O)=O)n(CC(N)=O)n1`
Reply text: 7

* * *

Test system: CAMK2D
Condition label: concentration: 1 μM, replicates: in singlicate; n = 1
Observable: %Inh (%)
Just the number in %, nothing appended.

The cases that follow already have their %Inh on record.
structure=COC(=O)c1c(-c2ccccc2)c2cc(Br)ccc2c(=O)n1Cc1ccc(NC(=O)CCC(=O)O)cc1 observable=%Inh observed_result=3
structure=Nc1ncnc2c1ncn2-c1ccc(Cl)cc1 observable=%Inh observed_result=0
structure=O=C(Nc1ccc2c(c1)OCO2)NC1CCN(c2ccnc(NCc3ccc(F)cc3)n2)CC1 observable=%Inh observed_result=7
structure=CCC(=O)c1c(-c2ccccc2)c2cc(Cl)ccc2c(=O)n1Cc1cc(C(=O)NC2CC2)n(C)n1 observable=%Inh observed_result=0

Turning now to a further record.
Inquiry: Fill in the blank: the reported %Inh of `COc1ccc(-c2cc3c(C)nc(N)nc3n([C@H]3CC[C@H](O)CC3)c2=O)cn1` is ____.
Reply text: 0

* * *

Tested on: PRKD1
Condition label: concentration: 1 μM, replicates: in singlicate; n = 1
Observable: %Inh (%)
Answer with a number only, understood to be in %.

Examples with their reported %Inh follow.
structure=COC(=O)c1c(-c2ccccc2)c2cc(C)ccc2c(=O)n1Cc1ccccc1 units_label=% observed_result=0
structure=COC(=O)c1c(-c2ccccc2)c2cc(Br)ccc2c(=O)n1Cc1ccc(NC(=O)CCC(=O)O)cc1 units_label=% observed_result=0
structure=CCc1nc(-c2cccc(C)c2)c(-c2ccncc2)s1 units_label=% observed_result=0

Inquiry: Field request: %Inh | item: `O=C(Nc1ccc2c(c1)OCO2)NC1CCN(c2ccnc(NCc3ccc(F)cc3)n2)CC1`
Reply text: 0

Inquiry: Which %Inh is listed for `Cl.NS(=O)(=O)c1cccc(Nc2cc(-c3ccc(F)cc3)n[nH]2)c1` ?
Reply text: 0

Inquiry: # input compound: `C[C@@H]1CC[C@H](C(=O)NC2CCCCC2)CN1c1cc(-c2ccc3c(N)n[nH]c3c2)nc(N)n1` ; wanted: its %Inh
Reply text: 0

Inquiry: I would be grateful if you could share the reported %Inh for `Cc1cc(Nc2nc(-c3cccc(C)n3)nc3ccccc23)ccn1` .
Reply text: 99.4

Inquiry: Would you kindly share the measured %Inh for `Cc1cccc(-c2cc(-c3c[nH]nc3-c3ccccn3)ccn2)c1` ?
Reply text: 57

Inquiry: Recorded %Inh of `CCS(=O)(=O)c1ccc(OC)c(Nc2ncc(-c3ccc(F)cc3)o2)c1.Cl` , please.
Reply text: 0
